// data source = the supplement of paper PMC12582362

Below is a list of entries, each paired with its recorded light-induced TopBP1 condensate (z-score) value.
Test system: optoTopBP1 Flp-In 293 T-REx (HEK293) cells
Assay: light-induced TopBP1 condensate (nuclear foci) count, plate-normalised robust z-score vs non-control wells; higher = more TopBP1 condensates (negative = condensation inhibitor), active = hit call of the paper
Settings: 10 µM; incubation time 2 h
Counter-ions that a name gives are not always drawn. In all, about 1,500 compounds went through this assay and about 30 (2%) showed activity. The entries come from a sample that favours actives as a whole.
Respond numerically, and do not add a unit to the figure.

Please review the following examples before continuing.
CNCCCC1c2ccccc2C=Cc2ccccc21 [Protriptyline hydrochloride] = -2.86
CNCC[C@@H](Oc1ccccc1C)c1ccccc1 [Tomoxetine hydrochloride] = -1.4
Cc1ccc2c(Cl)cc(Cl)c(O)c2n1 = -9.09
CN(c1nccc(=O)[nH]1)C1CCN(c2nc3ccccc3n2Cc2ccc(F)cc2)CC1 = -0.786
CCCCc1ccc2[nH]c(NC(=O)OC)nc2c1 = -0.867

Request: Param item = COC(=O)Nc1nc2cc(C(=O)c3ccccc3)ccc2[nH]1 ; retrieve measured light-induced TopBP1 condensate (z-score).
Result: -1.07

Request: So what's the measured light-induced TopBP1 condensate (z-score) for this one? CC(C)[C@H](N)C(=O)OCC(CO)OCn1cnc2c(=O)nc(N)[nH]c21 (some centres not stated) [Valganciclovir hydrochloride]
Result: 0.111
